Entries and their measured inhibition at 10 µM follow.
test system: fibrin-induced microglia activation; assay: Image-based assay of fibrin-induced microglia activation (HTS and dose response); assay type: cell-based, rat; details: Rattus norvegicus, Microglia, primary microglia HTS, fibrin stimulation, compounds at 10 μM; read-out: Fibrin % inhibition
Where a name gives a salt, the structure may show the parent alone.
parameter-measured: inhibition at 10 µM (%)

CN1CCC[C@@H]1Cc1c[nH]c2ccc(CCS(=O)(=O)c3ccccc3)cc12 [Eletriptan Hydrobromide]	-14
CCOC(=O)C1=C(C)NC(C)=C(C(=O)OC)C1c1cccc(Cl)c1Cl (stereo not drawn) [Felodipine]	2
CC(Cc1cccc(C(F)(F)F)c1)NCCOC(=O)c1ccccc1 (stereo not drawn) [Benfluorex]	-26
COC(=O)N[C@H](C(=O)N[C@@H](Cc1ccccc1)[C@@H](O)CN(Cc1ccc(-c2ccccn2)cc1)NC(=O)[C@@H](NC(=O)OC)C(C)(C)C)C(C)(C)C [Atazanavir]	-17
CCCc1ncc(C[n+]2ccccc2C)c(N)n1 [Amprolium]	-10
C[C@]12CC[C@@H]3c4ccc(O)cc4CC[C@H]3[C@@H]1CCC2=O [Estrone]	35
C=CCNC(N)=S [Allylthiourea]	-7
CCC1(C)CC(=O)NC1=O (stereo not drawn) [Ethosuximide]	-9
CCCCCCOC(=O)NC(=N)c1ccc(NCc2nc3cc(C(=O)N(CCC(=O)OCC)c4ccccn4)ccc3n2C)cc1 [Dabigatran etexilate]	3
